A set of compounds tested on CYP2C9 (Homo sapiens), with measured pIC50:
pIC50: −log10 of the molar value.

So, C[C@@H](c1ccccc1-c1ccc(F)cc1)n1cncc1C(=O)N1CCC(N2CCC[C@H](O)C2)CC1 ? Its pIC50 was < 5.00

The compound identified as C[C@@H](c1ccccc1-c1ccc(F)cc1)n1cncc1C(=O)N1CC[C@@H](N2CCOCC2)[C@@H](F)C1 registered its pIC50 at < 5.00

// field: pIC50; key: C[C@@H](c1ccccc1-c1ccc(F)cc1F)n1cncc1C(=O)N1CCC2NCCO[C@@H]2C1 (stereo partly drawn) ; value = < 5.00

pIC50 measured on C[C@@H](c1ccccc1-c1ccc(F)cc1)n1cncc1C(=O)N1CCC(N2CCn3c(nnc3C(F)(F)F)C2)CC1 = < 5.00

Kindly note the recorded pIC50 for C[C@@H](c1ccccc1-c1ccc(F)cc1)n1cncc1C(=O)N1CC[C@@H](N2CCNC(=O)C2)[C@@H](F)C1 , which is < 5.00

The compound listed as C[C@@H](c1ccccc1-c1ccc(F)cc1)n1cncc1C(=O)N1CCC(NC2COC[C@H]2O)CC1 (stereo partly drawn) shows pIC50 equal to < 5.00

For record CO[C@H]1CN(C2CCN(C(=O)c3cncn3[C@@H](C)c3ccccc3-c3ccc(F)cc3)CC2)CC[C@H]1O the listed pIC50 is < 5.00

Given item C[C@@H](c1ccccc1CN1CCC(F)CC1)n1cncc1C(=O)N1CCC2NCCO[C@@H]2C1 (stereo partly drawn) , the value recorded as its pIC50 is < 5.00

Briefly, pIC50 measured for C[C@@H](c1ccccc1-c1ccc(F)cc1)n1cncc1C(=O)N1CCC(N2CCCC(C)(O)C2)CC1 (stereo partly drawn) : < 5.00

Briefly, pIC50 measured for C[C@@H](c1ccccc1-c1ccc(F)cc1)n1cncc1C(=O)N1CCC(N2CCC(O)CC2)CC1 : < 5.00

---

- ASSAY_TARGET: human CYP11B1 (Homo sapiens, UniProt P15538)
- Sequence (P15538 25-503): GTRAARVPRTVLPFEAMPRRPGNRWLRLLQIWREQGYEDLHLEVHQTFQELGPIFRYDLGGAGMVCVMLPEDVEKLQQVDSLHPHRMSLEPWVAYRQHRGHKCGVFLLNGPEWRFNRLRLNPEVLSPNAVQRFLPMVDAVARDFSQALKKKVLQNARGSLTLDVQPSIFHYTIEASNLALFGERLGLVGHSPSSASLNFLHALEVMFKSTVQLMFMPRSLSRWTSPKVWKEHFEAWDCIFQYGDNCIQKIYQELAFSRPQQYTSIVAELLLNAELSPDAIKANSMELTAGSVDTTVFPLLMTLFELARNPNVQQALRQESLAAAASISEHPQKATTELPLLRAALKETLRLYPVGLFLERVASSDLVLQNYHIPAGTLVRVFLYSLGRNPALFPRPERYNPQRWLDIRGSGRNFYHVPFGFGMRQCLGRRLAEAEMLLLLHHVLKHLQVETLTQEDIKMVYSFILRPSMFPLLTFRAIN
- EXPERIMENT: IC50 vs CYP11B1 by measurement of cortisol synthesis in V79 cells
- SETTINGS: V79 cells expressing human CYP11B1, 1500 nM RSS, cortisol HTRF
Reported IC50 values for a set of molecules
Quick note: give the figure in µM, leave out the unit.

Past entries and their recorded results:
C[C@@H](c1ccccc1-c1ccc(F)cc1)n1cncc1C(=O)N1CC[C@@H](N2CCC(O)CC2)[C@@H](F)C1; 24.3
C[C@@H](c1ccccc1-c1ccc(F)cc1)n1cncc1C(=O)N1CC[C@@H](N2CCOCC2)[C@@H](F)C1; 22
CO[C@H]1CN(C2CCN(C(=O)c3cncn3[C@@H](C)c3ccccc3-c3ccc(F)cc3)CC2)C[C@@H]1O; 21.4

# IC50 of C[C@@H](c1ccccc1-c1ccc(F)cc1)n1cncc1C(=O)N1CCC2NC(=O)CO[C@@H]2C1 (mixture of isomers) = 26.9

Noted for CO[C@@H]1CN(C2CCN(C(=O)c3cncn3[C@@H](C)c3ccccc3-c3ccc(F)cc3)CC2)CC[C@@H]1O : its IC50 reads 41.9

What the record says about C[C@@H]1CN(C2CCN(C(=O)c3cncn3[C@@H](C)c3ccccc3-c3ccc(F)cc3)CC2)CC[C@@H]1O : IC50 is 11.5

Looking up C[C@@H](c1ccccc1-c1ccccc1)n1cncc1C(=O)N1CCC2NCCO[C@@H]2C1 (stereo partly drawn) , I see its IC50 listed as 21.2

Input C[C@@H](c1ccccc1-c1ccc(F)cc1)n1cncc1C(=O)N1CCC(F)(CN2CCOCC2)CC1 . Output IC50: 6.03

// IC50 lookup, molecule = C[C@@H](c1ccccc1-c1ccc(F)cc1)n1cncc1C(=O)N1CCC[C@@H]2OCCN[C@H]2C1 , result: 16.4

Memo: C[C@@H](c1ccccc1-c1ccc(F)cc1)n1cncc1C(=O)N1CCC(N2CCNC(=O)C2)CC1 , reported IC50: 16.8

Quick note, IC50 for CC(C)c1ccccc1[C@H](C)n1cncc1C(=O)N1CCC2NCCO[C@@H]2C1 (stereo partly drawn) landed at 45.3

Entry source: patent US9981969B2
